Test system: L1210 leukemia ip in BDF1 mice, survival T/C
Experiment: NCI In Vivo Anticancer Drug Screen. Data for tumor model L1210 Leukemia (intraperitoneal) in B6D2F1 (BDF1) mice
Conditions: endpoint: mean survival time; dose: 400.0 mg/kg/injection; schedule: Q04DX003 (ip); vehicle: acetone; higher = longer survival
Toxic doses and inconclusive results are not listed.
Entries annotated with measured T/C
valueKind: T/C

- compound: "COc1cccc(C2CCCCCC2OS(=O)(=O)c2ccc(C)cc2)c1OC (centres undefined)"
  targetOfAssay: "L1210 leukemia ip in BDF1 mice, survival T/C"
  result: "103 % of control"
- compound: "O=S(=O)(c1ccccc1)N1CCOC1=S"
  targetOfAssay: "L1210 leukemia ip in BDF1 mice, survival T/C"
  result: "93 % of control"
- compound: "COc1cccc(/C2=C/CCCCCC2)c1"
  targetOfAssay: "L1210 leukemia ip in BDF1 mice, survival T/C"
  result: "91 % of control"
- compound: "CC1(C)CC2C(=O)c3ccccc3NC2c2ccccc21 (centres undefined)"
  targetOfAssay: "L1210 leukemia ip in BDF1 mice, survival T/C"
  result: "93 % of control"

* * *

System: L1210 leukemia ip in BDF1 mice, survival T/C
Assay: NCI In Vivo Anticancer Drug Screen. Data for tumor model L1210 Leukemia (intraperitoneal) in B6D2F1 (BDF1) mice
Conditions: endpoint: mean survival time; dose: 400.0 mg/kg/injection; schedule: Q04DX003 (ip); vehicle: carboxymethylcellulose (CMC); higher = longer survival
Toxic doses and inconclusive results are not listed.
T/C values by entry
valueKind: T/C

- compound: "CCCCCCCCC(=O)N(CC(C)C)CC(C)C"
  valueKind: "T/C"
  result: "104 % of control"
- compound: "O=C(Nc1ccc([N+](=O)[O-])cc1Cl)Oc1ccc(Cl)cc1Cl"
  valueKind: "T/C"
  result: "98 % of control"
- compound: "O=C1C2C3CCC(O3)C2C(=O)N1N1C(=O)C2C3CCC(O3)C2C1=O (centres undefined)"
  valueKind: "T/C"
  result: "101 % of control"
- compound: "O=S(=O)(c1ccc(NC(=S)NC(Cc2ccccc2)c2ccccc2)cc1)N1CCCCC1 (centres undefined)"
  valueKind: "T/C"
  result: "93 % of control"

* * *

System: L1210 leukemia ip in BDF1 mice, survival T/C
Assay: NCI In Vivo Anticancer Drug Screen. Data for tumor model L1210 Leukemia (intraperitoneal) in B6D2F1 (BDF1) mice
Conditions: endpoint: mean survival time; dose: 25.0 mg/kg/injection; schedule: Q01DX009 (ip); vehicle: Klucel (hydroxypropylcellulose) (HPC); higher = longer survival
Toxic doses and inconclusive results are not listed.
# T/C per record follows

- molecule: "CN(C)CCCC1C2CCC(C2)C1C#N (stereo not given)"
  T/C: "95 % of control"
- molecule: "CC(=O)N(C)N=Nc1ccc(C)cc1"
  T/C: "116 % of control"
- molecule: "[Cl][Rh][Cl].c1cn[nH]c1.c1cn[nH]c1.c1cn[nH]c1.c1cn[nH]c1"
  T/C: "89 % of control"
- molecule: "CN(N)P(=S)(c1ccccc1)N(C)N"
  T/C: "94 % of control"
- molecule: "CCO/C([O-])=C/[P+](c1ccccc1)(c1ccccc1)c1ccccc1"
  T/C: "106 % of control"
- molecule: "CN(C)C(=S)c1ccc(Cl)cc1"
  T/C: "98 % of control"
- molecule: "CN1C(=O)CCS(=O)(=O)C1c1ccc(Cl)cc1 (stereo not given)"
  T/C: "104 % of control"
- molecule: "C/C(Cc1cc(C)nc(N)n1)=N\\Nc1ccccc1"
  T/C: "91 % of control"
- molecule: "CCN1CSC(=S)N(CC)C1"
  T/C: "103 % of control"
- molecule: "C=C1CC[N+]2(CCCC)CCCC12 (stereo not given)"
  T/C: "97 % of control"

* * *

Tested on: L1210 leukemia ip in BDF1 mice, survival T/C
Experiment: NCI In Vivo Anticancer Drug Screen. Data for tumor model L1210 Leukemia (intraperitoneal) in B6D2F1 (BDF1) mice
Conditions: endpoint: mean survival time; dose: 100.0 mg/kg/injection; schedule: Q04DX003 (ip); vehicle: carboxymethylcellulose (CMC); higher = longer survival
Inconclusive results and toxic doses are left out.
We begin with a simple list: items and their reported T/C.

- molecule: "CCCCCCC(=O)N(C(C)C)C(C)C"
  T/C: "104 % of control"
- molecule: "CCOC(CN1CCOCC1)c1ccccc1 (centres undefined)"
  T/C: "107 % of control"
- molecule: "CCCCCCCCC(=O)N(CC(C)C)CC(C)C"
  T/C: "101 % of control"
- molecule: "O=C1CC2(C(=O)O)CC3CC2C(O1)C3I (centres undefined)"
  T/C: "105 % of control"

* * *

Tested on: L1210 leukemia ip in BDF1 mice, survival T/C
Test: NCI In Vivo Anticancer Drug Screen. Data for tumor model L1210 Leukemia (intraperitoneal) in B6D2F1 (BDF1) mice
Settings: endpoint: mean survival time; dose: 200.0 mg/kg/injection; schedule: Q04DX003 (ip); vehicle: other; higher = longer survival
Toxic doses and inconclusive results are not listed.
valueKind: T/C

- smiles: "O=C(CCCCC(=O)c1ccc(O)cc1O)c1ccc(O)cc1O"
  targetOfAssay: "L1210 leukemia ip in BDF1 mice, survival T/C"
  result: "100 % of control"
- smiles: "CC(=O)N(CC(=O)O)Cc1ccccc1"
  targetOfAssay: "L1210 leukemia ip in BDF1 mice, survival T/C"
  result: "101 % of control"
- smiles: "O=[N+]([O-])c1ccc(OCc2ccc(S(=O)(=O)F)cc2)c(Cl)c1"
  targetOfAssay: "L1210 leukemia ip in BDF1 mice, survival T/C"
  result: "97 % of control"
- smiles: "Cc1nnc(NC(=O)C(Cl)(Cl)Cl)s1"
  targetOfAssay: "L1210 leukemia ip in BDF1 mice, survival T/C"
  result: "109 % of control"
- smiles: "Clc1ccc(CNc2ncnc3[nH]ncc23)cc1"
  targetOfAssay: "L1210 leukemia ip in BDF1 mice, survival T/C"
  result: "113 % of control"
- smiles: "C/C(=C\\c1ccccc1)C(=O)c1ccccc1"
  targetOfAssay: "L1210 leukemia ip in BDF1 mice, survival T/C"
  result: "101 % of control"
- smiles: "CCCCCCC/C=N/N=C/CCCCCCC"
  targetOfAssay: "L1210 leukemia ip in BDF1 mice, survival T/C"
  result: "97 % of control"

* * *

Test system: L1210 leukemia ip in BDF1 mice, survival T/C
Assay: NCI In Vivo Anticancer Drug Screen. Data for tumor model L1210 Leukemia (intraperitoneal) in B6D2F1 (BDF1) mice
Settings: endpoint: mean survival time; dose: 200.0 mg/kg/injection; schedule: Q01DX001 (ip); vehicle: Klucel (hydroxypropylcellulose) (HPC); higher = longer survival
Inconclusive results and toxic doses are left out.
Entries and their T/C values follow.

- compound: "Cc1cccc(CN2C(=O)c3ccccc3C2=O)c1"
  T/C: "103 % of control"
- compound: "CC(=O)OCC(OC(C)=O)C1OCOC2COCOC21 (stereo not given)"
  T/C: "89 % of control"
- compound: "O=Nc1ccc(O)cc1Cl"
  T/C: "117 % of control"
- compound: "COc1ccc(/C=C/c2cnnc3ccccc23)cc1OC"
  T/C: "98 % of control"
- compound: "CC(=O)NNS(=O)(=O)c1ccccc1"
  T/C: "100 % of control"

* * *

Tested on: L1210 leukemia ip in BDF1 mice, survival T/C
Experiment: NCI In Vivo Anticancer Drug Screen. Data for tumor model L1210 Leukemia (intraperitoneal) in B6D2F1 (BDF1) mice
Settings: endpoint: mean survival time; dose: 12.5 mg/kg/injection; schedule: Q04DX003 (ip); vehicle: Klucel (hydroxypropylcellulose) (HPC); higher = longer survival
Inconclusive results and toxic doses are left out.
Quick list: T/C per entry.

- smiles: "COc1ccc(COC(=O)N=[N+]=[N-])cc1"
  T/C: "112 % of control"
- smiles: "CCCCCCCCCCCCCCCCCN"
  T/C: "93 % of control"
- smiles: "NC(=O)C(=O)NCCCN1CC1"
  T/C: "102 % of control"
- smiles: "Cc1ccc2c(C)c3ccc4ccccc4c3c[n+]2c1"
  T/C: "104 % of control"
- smiles: "O=C(C[n+]1ccc2c([N+](=O)[O-])cccc2c1)c1ccccc1"
  T/C: "98 % of control"

* * *

# key: entry, value: T/C
Test system: L1210 leukemia ip in BDF1 mice, survival T/C
Experiment: NCI In Vivo Anticancer Drug Screen. Data for tumor model L1210 Leukemia (intraperitoneal) in B6D2F1 (BDF1) mice
Conditions: endpoint: mean survival time; dose: 200.0 mg/kg/injection; schedule: Q04DX002 (ip); vehicle: saline with Tween-80; higher = longer survival
Toxic doses and inconclusive results are not listed.

- compound: "Cc1cccc(Cl)c1OCC(O)COc1c(C)cccc1Cl"
  targetOfAssay: "L1210 leukemia ip in BDF1 mice, survival T/C"
  T/C: "95 % of control"
- compound: "COc1cc(C2=N/C(=C\\c3cc(Br)cc(Br)c3O)C(=O)O2)cc(OC)c1OC"
  targetOfAssay: "L1210 leukemia ip in BDF1 mice, survival T/C"
  T/C: "95 % of control"
- compound: "CCN(CC)C(=O)c1cc([N+](=O)[O-])ccc1OCc1ccccc1"
  targetOfAssay: "L1210 leukemia ip in BDF1 mice, survival T/C"
  T/C: "89 % of control"
- compound: "CN(C)C=Nc1ncnc2nc[nH]c12"
  targetOfAssay: "L1210 leukemia ip in BDF1 mice, survival T/C"
  T/C: "102 % of control"
- compound: "CC(=N/Nc1ccc([N+](=O)[O-])cc1[N+](=O)[O-])/C(C)=C/C1C=CCCC1(C)C (stereo not given)"
  targetOfAssay: "L1210 leukemia ip in BDF1 mice, survival T/C"
  T/C: "103 % of control"
